Molecular target: T1, human IL-13 (human, UniProt P35225 35-146, biotinylated on the Biacore chip)
T1 construct: also called hIL-13; recombinant human IL-13
T1 sequence (P35225 35-146 limits assumed): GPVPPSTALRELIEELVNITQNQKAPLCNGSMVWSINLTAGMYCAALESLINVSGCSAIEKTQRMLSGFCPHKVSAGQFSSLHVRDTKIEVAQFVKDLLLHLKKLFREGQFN
Experiment: Dom10 RBA (IL-13 sandwich ELISA per paragraph 471)
Method: A MAXISORP™ plate (high protein binding ELISA plate, Nunc, Denmark) was coated overnight with 2.5 μg/ml coating antibody (Module Set, Bender MedSystems, Vienna, Austria), then washed once with 0.05% (v/v) Tween 20 in PBS before blocking with 0.5% (w/v) BSA 0.05% (v/v) Tween 20 in PBS. […] The plate was then incubated with TMB substrate (KPL, Gaithersburg, USA), and the reaction was stopped by the addition of HCl and the absorbance read at 450 nm.
pEC50: −log10 of the molar value.
# if value of pEC50 reaches 6, tag rule met; if it stays below, tag rule not met

- DOM9-112-210-ASTKGPS-DOM10-273 (bispecific antibody, in-line fusion, from pDOM5) EVQLLESGGGLVQPGGSLRLSCAASGFTFRNFGMGWVRQAPGKGLEWVSWIISSGTETYYADSVKGRFTISRDNSKNTLYLQMNSLRAEDTAVYYCAKSLGRFDYWGQGTLVTVSSASTKGPSEVQLLESGGGLVQPGGSLRLSCAASGFTFELEEMDWVRQAPGKGLEWVSSISGSGGSTYYADSVKGRFTISRDNSKNTLYLQMNSLRAEDTAVYYCAKAYTGFDYWGQGTLVTVSS: rule not met
- DOM9-112-210-DOM10-270 (bispecific antibody, in-line fusion, from pDOM5) EVQLLESGGGLVQPGGSLRLSCAASGFTFRNFGMGWVRQAPGKGLEWVSWIISSGTETYYADSVKGRFTISRDNSKNTLYLQMNSLRAEDTAVYYCAKSLGRFDYWGQGTLVTVSSASTKGPSDIQMTQSPSSLSASVGDRVTITCRASSVILNELHWYQQKPGKAPKLLISAVSRLQSGVPSRFSGSGSGTDFTLTISSLQPEDFATYYCLQTFWGPYTFGQGTKVEIKR: rule met
- DOM10-208-TVAAPS-DOM9-155-78 (bispecific antibody, in-line fusion, from pDOM5) DIQMTQSPSSLSASVGDRVTITCRASSPITDGLAWYQQKPGKAPKLLIDTGSRLQSGVPSRFSGSGSGTDFTLTISSLQPEDFATYYCRQGAMGSYTFGQGTKVEIKRTVAAPSDIQMTQSPSSLSASVGDRVTITCRASRHIGDWLHWYQQKPGKAPKLLIAWASTLDSGVPSRFSGSGSGTDFTLTISSLQPEDFATYYCLQEGWGPPTFGQGTKVEIKR: rule not met
- DOM10-273-ASTKGPS-DOM9-155-78 (bispecific antibody, in-line fusion, from pDOM5) EVQLLESGGGLVQPGGSLRLSCAASGFTFELEEMDWVRQAPGKGLEWVSSISGSGGSTYYADSVKGRFTISRDNSKNTLYLQMNSLRAEDTAVYYCAKAYTGFDYWGQGTLVTVSSASTKGPSDIQMTQSPSSLSASVGDRVTITCRASRHIGDWLHWYQQKPGKAPKLLIAWASTLDSGVPSRFSGSGSGTDFTLTISSLQPEDFATYYCLQEGWGPPTFGQGTKVEIKR: rule met
- DOM9-112-210-ASTKGPS-DOM10-277 (bispecific antibody, in-line fusion, from pDOM5) EVQLLESGGGLVQPGGSLRLSCAASGFTFRNFGMGWVRQAPGKGLEWVSWIISSGTETYYADSVKGRFTISRDNSKNTLYLQMNSLRAEDTAVYYCAKSLGRFDYWGQGTLVTVSSASTKGPSEVQLLESGGGLVQPGGSLRLSCAASGFTFSSYEMDWVRQAPGKGLEWVSTISADGVTTYYADSVKGRFTISRDNSKNTLYLQMNSLRAEDTAVYYCAKAFDAFDYWGQGTLVTVSS: rule not met
- DOM10-416-ASTKGPS-DOM9-155-78 (bispecific antibody, in-line fusion, from pDOM5) EVQLLESGGGLVQPGGSLRLSCAASGFTFKGSEMDWVRQAPGKGLEWVSTISADGRETYYADSVKGRFTISRDNSKNTLYLQMNSLRAEDTAVYYCAKSYTSFDYWGQGTLVTVSSASTKGPSDIQMTQSPSSLSASVGDRVTITCRASRHIGDWLHWYQQKPGKAPKLLIAWASTLDSGVPSRFSGSGSGTDFTLTISSLQPEDFATYYCLQEGWGPPTFGQGTKVEIKR: rule met
